Consider the following molecules; for each one, report its logD.
- protocol: physchem
- measurement conditions: octan-1-ol/water, pH 7.4, LogD7.4
# output: bare number, no unit

// sample O=C(NCCc1ccccc1Cl)c1cc(-n2ncc(=O)[nH]c2=O)ccc1Cl , its logD was 1.29

Reported logD ( Cc1cc(Nc2nc(O[C@@H](C)c3ccc(F)cn3)c(C#N)nc2C)[nH]n1 ) = 2.86

GET /value?item= O=C(CC12CC3CC(CC(C3)C1)C2)Nc1cccc2ncccc12 &field=logD returns 3.83

logD for O=C(c1ccc(-c2ccc(Cl)cc2)o1)N(Cc1ccccn1)c1ccc(N2CCNCC2)cc1 is 3

Value of logD reported for the molecule CNC(=O)c1ccc(Oc2ccc3c(c2)CCN(C2CCC2)CC3)nc1 [GSK189254] is 1.45

// sample O=C(C1CCCCC1)N1CC(=O)N2CCc3ccccc3C2C1 (stereo not drawn) [PRAZIQUANTEL] , its logD was 2.43

// CC(=O)Nc1nc(N)n(-c2ccccc2)n1 : logD value = -0.2

# molecule Nc1nccc(-c2c[nH]c3ccccc23)n1 ; its logD = 1.68

Memo: O=C(O)c1cncc(-c2ccc(Cl)c(C(=O)NCC34CC5CC(CC(C5)C3)C4)c2)c1 , reported logD: 0.85

For record CCN(CC)CCOCCOC(=O)C1(c2ccccc2)CCCC1 [CARBETAPENTANE] the listed logD is 1.33

The molecule listed as COCCNS(=O)(=O)c1ccc(-c2cnc(N)c(C(=O)Nc3cccnc3)n2)cc1 has a reported logD of 2.26

Just so you know, measured logD for Cc1ccc(CO)cc1N(C)c1ccnc(Nc2cc(N3CCCOCC3)cc(N3CCOCC3)c2)n1 came out at 3.3

Record Nc1cccc(CCc2ccc3cc[nH]c3c2)n1 . Reported logD: 2.8

Data point: CCn1c2ccccc2c2cc(NC(=O)N3CCOCC3)ccc21 ; logD = 3.2

Form field logD, entry CCS(=O)(=O)c1ccc(-c2cc(Cl)ccc2OCC(=O)O)c(Cl)c1 : -0.43

Record summary for Cc1ncc(-c2ccnc(Nc3ccc(C(N)=O)cc3)n2)n1C(C)C : reported logD = 2.39

Looking up CCCSc1nc(N2CCCC(C(=O)O)C2)ccc1C(=O)NC1CCCCC1 (stereo not drawn) , I found its logD recorded as 1.72

Looking up O=C1CN(C(=O)c2ccco2)c2ccccc2N1 , I see its logD listed as 1.21

The measured logD associated with NC(=O)c1sc(-c2ccsc2)cc1NS(=O)(=O)c1ccc(C(F)(F)F)cc1 reads 2.39

logD for C=C(CC)C(=O)c1ccc(OCC(=O)O)c(Cl)c1Cl [ETHACRYNIC ACID] is 0.02

The reported value for Cc1cnc(Nc2cc(N3CCOCC3)nc(N[C@@H](C)c3ncc(F)cn3)n2)s1 in terms of logD is 2.68

Recorded result, Cc1ncc(-c2ccnc(Nc3ccc(C(=O)NCCN(C)C)c(F)c3)n2)n1C(C)C , logD: 1.96

logD in this record for C[C@]12CCC(=O)C=C1C=C[C@@H]1[C@@H]2CC[C@@]2(C)[C@H]1CC[C@@]21CCC(=O)O1 [CANRENONE] : 3.2

According to the records, this molecule Cn1cc(-c2ccc(O)cc2)c(=O)c2c(O)cc(O)cc21 displays logD of 2.2

Lab book: logD of NC(=O)Nc1cc(-c2cccc(O)c2)sc1C(N)=O noted as 2.21

// C[C@H](c1ccc(F)cc1CCCC(=O)O)N(c1cc(F)ccc1F)S(=O)(=O)c1ccc(Cl)cc1 : logD value = 3.1

Memo: O=C(OCCN1CCCCC1)c1c[nH]c2ccccc12 , reported logD: 2

For reference, reported logD for O=C(O)c1cccnc1Nc1cccc(C(F)(F)F)c1 [NIFLUMIC ACID] stands at 1

====

Hi there, I'd appreciate the recorded pKa for every entry that follows.
- protocol: physchem
Reply with just the number.

Form field pKa, entry CN1CCN(CC(=O)N2c3ccccc3C(=O)Nc3cccnc32)CC1 [PIRENZEPINE] : 7.88

Value of measured pKa for the entry CCOC(=O)[C@H](CCc1ccccc1)N[C@@H](C)C(=O)N1CCC[C@H]1C(=O)O : 6.4

Form field pKa, entry COc1cc2ncnc(Nc3ccc(F)c(Cl)c3)c2cc1NC(=O)/C=C/CN1CCCCC1 [DACOMITINIB ANHYDROUS] : 9.36

The recorded pKa for O=C(O)[C@H](Cc1ccccc1)N1CCC(CN2CCC(Oc3ccc(Cl)c(Cl)c3)CC2)CC1 is 9.25

Item: O=C(NS(=O)(=O)N1CCC(N2CCC(Oc3ccc(Cl)c(Cl)c3)CC2)CC1)c1ccccc1 | pKa: 8.1

pKa reading for Cc1cc(C)nc(N)c1 : 7.7

Summary for this compound, CN(C(=O)Cc1ccc(S(=O)(=O)N(C)C)cc1)C1CCN(CCC(c2ccccc2)c2ccccc2)CC1 : pKa is 8.1

For CCN(CC)CCNC(=O)c1ccc(NS(C)(=O)=O)cc1 [SEMATILIDE] the compound record lists pKa as 9.35

Data point: COc1ccc(OC)c(C(O)CNC(=O)CN)c1 (stereo unspecified) ; pKa = 7.59

Just so you know, measured pKa for CO/N=C1\CN(c2nc3c(cc2F)c(=O)c(C(=O)O)cn3C2CC2)CC1CN (stereo unspecified) came out at 8.6

CCc1cc(C(N)=S)ccn1 [ETHIONAMIDE] yielded pKa of 4.4

====

Would you mind telling me the reported logD of each entry?
- protocol: physchem
- measurement conditions: octan-1-ol/water, pH 7.4, LogD7.4
Respond numerically, and do not add a unit to the figure.

Measured logD, O=C(O)c1ccccc1Cn1nnc(-c2cccc(OCc3ccc4ccccc4n3)c2)n1 : 2.1

// O=C(Nc1ccc(N2CCOCC2)cn1)c1nnc(Nc2ccccc2F)o1 : logD value = 2.4

For record COc1ccc(Cl)cc1NC(=O)CCS(=O)(=O)c1ccc(Br)cc1 the listed logD is 3.4

// field: logD; key: O=c1cc(N2CCOCC2)oc2c(-c3ccccc3)cccc12 ; value = 2.9

Entry Cc1ncc(-c2ccc([C@H]3CC[C@H](CC(=O)O)CC3)cc2)nc1C(N)=O — recorded logD = 1

The compound CN1CCCC(CN2CCN(C(=O)Nc3ccc(Cl)c(Cl)c3)CC2)C1 (configuration not stated) showed logD equal to 1.98

Lab book: logD of O=S1(=O)CC(O)C(N2CCC(c3ccccc3)CC2)C1 (configuration not stated) noted as 1.4

====

- protocol: in vitro
- measurement conditions: mouse, plasma
reported metric: fraction unbound at 5 h
Write the number on its own, no unit after it.

Short answer for O=C(Nc1ccc(N2CCNCC2)cc1)c1ccc(-c2ccc(Cl)cc2)o1 : fraction unbound at 5 h was 0.03

fraction unbound at 5 h measured on CCC(CC)[C@@H](CO)NS(=O)(=O)c1ccc(Cl)s1 [GSI-136] = 0.11

Reported fraction unbound at 5 h of COc1ccc2ncc(F)c(CCN3CCC(NCc4cc5c(cn4)OCCO5)CC3)c2n1 : 0.36

Sample CCCN(c1cccnc1)P(=O)(c1ccccc1)c1ccccc1 ; fraction unbound at 5 h observed: 0.124

The compound listed as O=C(O)[C@H](Cc1ccccc1)N1CCC(CN2CCC(Oc3ccc(Cl)c(Cl)c3)CC2)CC1 has a reported fraction unbound at 5 h of 0.154

Entry CC(C)(C)OC(=O)NC[C@H]1CC[C@H](CNC(=O)c2cc(N3CCC(CCN4CC(O)C4)CC3)nc3ccccc23)CC1 ; fraction unbound at 5 h = 0.0139

====

- protocol: in vitro
- measurement conditions: hepatocytes
Please respond with reported hepatocyte CLint for every item in the list.

The recorded hepatocyte CLint for entry CCc1cccc2cc(C(O)CNC(C)(C)C)oc12 (stereo not drawn) equals > 150 µL/min/1e6 cells

Entry O=C(c1csc2c1CCCC2)N1CCCCC1 , hepatocyte CLint reported as > 150 µL/min/1e6 cells

Record summary for O=C(Nc1cccc(CCO)c1)c1cc2cc(Cl)ccc2[nH]1 : reported hepatocyte CLint = > 150 µL/min/1e6 cells

====

- protocol: in vitro
- measurement conditions: human, plasma, PPB
reported metric: fraction unbound at 5 h
Could you respond with only the numeric value?

Summary for this molecule, COc1cccc2c1c(NS(=O)(=O)c1ccc(Cl)s1)nn2Cc1cccc(CNC(=O)[C@@H]2COCCN2)c1 : fraction unbound at 5 h is 0.016

Lookup result for O=C(O)c1c(O)c(Cc2ccc(Cl)cc2)nc2c3c(ccc12)CCCC3 [PSI-697] ; measured fraction unbound at 5 h: 0.0007

Query Fc1ccc(-c2c3cccc(C(F)(F)F)c3nn2Cc2ccc(F)cc2Cl)cc1 [LXR-623] yields fraction unbound at 5 h of 0.0006

In plain terms, COc1cc(Cc2cnc(N)nc2N)cc(OC)c1OC [TRIMETHOPRIM] has a documented fraction unbound at 5 h of 0.339

get_value(item= O=S(=O)(Nc1ccc(C(F)(F)F)cc1)c1ccc2sc(CO)nc2c1 , readout=fraction unbound at 5 h) returns 0.0027

For this molecule ( C=CC1(C)CC(=O)C2(O)C(C)(O1)C(OC(C)=O)C(O)C1C(C)(C)CCC(O)C12C (stereo not given) ), measured fraction unbound at 5 h is 0.16

Measured fraction unbound at 5 h of CCC(CC)C[C@H](c1ccc(C(=O)O)c(Oc2cccc(Cl)c2)c1)N1CCC[C@H](n2cc(C)c(=O)[nH]c2=O)C1 : 0.0119

Consider CC1=C(/C=C/C(C)=C/C=C/C(C)=C/C(=O)Nc2ccc(O)cc2)C(C)(C)CCC1 [FENRETINIDE] . Its measured fraction unbound at 5 h is 0.0019

Measured fraction unbound at 5 h, CN[C@@H](C)C(=O)N[C@H](C(=O)N[C@H]1CCCN(CCc2ccccc2)C1)C(C)(C)C : 0.506

Recorded result, COc1cc2nnc(C(N)=O)c(Nc3ccc(F)cc3F)c2cc1N1CCN(C)CC1 , fraction unbound at 5 h: 0.0948
